Data provenance is PubChem BioAssay AID1851.

- STUDY_SYSTEM: Cytochrome P450 2C9 (Homo sapiens)
- ASSAY_SUMMARY: Cytochrome panel assay with activity outcomes
- CONDITION_PARAMETERS: recombinant CYP, pro-luciferin dealkylation, luminescence, p450-cyp2c9; series mostly up to 57.1 µM
The whole screen tested about 16,000 compounds, of which about 4,000 (25%) were called active. Not shown: some 26% with an inconclusive outcome. The call rests on the fitted dose curve; in most records, active means well fitted curve in the direction sought with a large enough effect; inconclusive means small, poorly fitted or top-dose-only effect, or effect the other way; inactive means no such curve, though single readings can be large or run the other way. A selection follows.
Choose one outcome from this list and give only that: active, inactive

Could you please tell me the result logged for CC(C)CNC(=S)N1CCN(C)CC1 in this assay? inactive

Could you please tell me the result logged for CNCCNS(=O)(=O)c1cccc2cnccc12 in this assay? inactive

Could you please tell me the result logged for Cc1ccc2nc(SCC(=O)NCc3cccs3)c(C#N)cc2c1 in this assay? inactive

Could you please tell me the result logged for CCCc1nn(-c2ccccc2)c2c1C(c1cccs1)C(C#N)=C(N)O2 (stereo unspecified) in this assay? active

Could you please tell me the result logged for NCCCCCCCCCCNS(=O)(=O)c1cccc2c(Cl)cccc12 in this assay? active

Could you please tell me the result logged for NCCNS(=O)(=O)c1cccc2cnccc12 in this assay? inactive

* * *

- STUDY_SYSTEM: Cytochrome P450 2C9 (Homo sapiens)
- ASSAY_SUMMARY: Cytochrome panel assay with activity outcomes
- CONDITION_PARAMETERS: recombinant CYP, pro-luciferin dealkylation, luminescence, p450-cyp2c9; series mostly up to 57.1 µM
Among all 16,000 compounds or so, about 4,000 (25%) were called active. Roughly 26% stayed inconclusive and do not appear here. The call rests on the fitted dose curve; in most records, active means well fitted curve in the direction sought with a large enough effect; inconclusive means small, poorly fitted or top-dose-only effect, or effect the other way; inactive means no such curve, though single readings can be large or run the other way. The list is a sample of the results.
Choose one outcome from this list and give only that: T for active, F for inactive

Could you please tell me the result logged for COc1ccc(NC(=O)N2CC3(CCN(C(=O)c4ccc(OC)cc4)CC3)C2)cc1 in this assay? F

Could you please tell me the result logged for Cc1ccc(N=Nc2c(N)n(-c3ccccc3)[nH]c2=O)cc1 in this assay? T

Could you please tell me the result logged for CCN1CCN(C(=O)N[C@H](C(=O)N[C@@H]2C(=O)N3C(C(=O)O)=C(CSc4nnnn4C)CS[C@@H]23)c2ccc(O)cc2)C(=O)C1=O in this assay? F

Could you please tell me the result logged for Nc1ncnc2c1cnn2-c1ccccc1 in this assay? F

Could you please tell me the result logged for C/C(CC(=O)NC1CCCC1)=N\NC(=O)Cc1cccs1 in this assay? F

Could you please tell me the result logged for CN1/C(=C\C(=O)COC(=O)Cn2nnc(-c3ccccc3)n2)C(C)(C)c2ccccc21 in this assay? T

Could you please tell me the result logged for C[C@H](O)[C@H](O)[C@@H]1CNc2nc(N)[nH]c(=O)c2N1 in this assay? F

Could you please tell me the result logged for CC(=O)Nc1ccc(Nc2ncnc3c2cnn3-c2ccccc2)cc1 in this assay? T

Could you please tell me the result logged for Cn1cc(C(=O)N/N=C/C(Br)=C\c2ccccc2)ccc1=O in this assay? F

Could you please tell me the result logged for CSc1nc(N)c2ncn([C@@H]3O[C@@H](COP(=O)(O)OP(=O)(O)O)[C@@H](O)[C@H]3O)c2n1 in this assay? F

Could you please tell me the result logged for FC(F)(F)c1cc(CN2CCCC3(CCNCC3)C2)cc(C(F)(F)F)c1 in this assay? F

Could you please tell me the result logged for CC(C)(C)c1ccc(OCC(=O)NNC(=O)Cc2cccs2)cc1 in this assay? F

Could you please tell me the result logged for Cc1nn(Cc2c(F)c(F)c(F)c(F)c2F)c(C)c1NC(=O)c1c(-c2ccccc2)nn(-c2ccccc2)c1C in this assay? T

Could you please tell me the result logged for Cn1cccc1CC(=O)N/N=C\c1cccs1 in this assay? F

Could you please tell me the result logged for O=C(O)[C@@H]1CCCNC1 in this assay? F

Could you please tell me the result logged for COc1ccc(Oc2nc3ccccc3nc2C(F)(F)F)cc1 in this assay? T

Could you please tell me the result logged for CN1[C@@H]2CC[C@H]1CC(OC(c1ccccc1)c1ccccc1)C2 (some centres not stated) in this assay? F

* * *

- STUDY_SYSTEM: Cytochrome P450 2C9 (Homo sapiens) (UniProt P11712)
- Sequence (P11712 whole entry, looked up): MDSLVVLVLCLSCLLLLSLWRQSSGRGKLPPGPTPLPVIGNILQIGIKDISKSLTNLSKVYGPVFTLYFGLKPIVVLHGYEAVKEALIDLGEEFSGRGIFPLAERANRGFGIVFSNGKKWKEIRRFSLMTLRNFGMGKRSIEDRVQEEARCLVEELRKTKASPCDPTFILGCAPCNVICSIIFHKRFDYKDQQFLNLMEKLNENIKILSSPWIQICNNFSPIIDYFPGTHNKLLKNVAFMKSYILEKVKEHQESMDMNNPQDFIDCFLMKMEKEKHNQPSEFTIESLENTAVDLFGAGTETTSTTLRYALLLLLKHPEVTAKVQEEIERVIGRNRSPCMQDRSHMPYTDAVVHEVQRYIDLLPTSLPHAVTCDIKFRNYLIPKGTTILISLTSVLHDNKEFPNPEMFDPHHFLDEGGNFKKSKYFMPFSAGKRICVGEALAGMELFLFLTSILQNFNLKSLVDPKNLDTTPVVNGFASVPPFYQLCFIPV
- ASSAY_SUMMARY: Cytochrome panel assay with activity outcomes
- CONDITION_PARAMETERS: recombinant CYP, pro-luciferin dealkylation, luminescence, p450-cyp2c9; series mostly up to 57.1 µM
The whole screen tested about 16,000 compounds, of which about 4,000 (25%) were called active. Roughly 26% stayed inconclusive and do not appear here. Calls come from the whole dose curve; as a rule, active = well fitted curve in the direction sought with a large enough effect; inconclusive = small, poorly fitted or top-dose-only effect, or effect the other way; inactive = no such curve, though single readings can be large or run the other way. The list is a sample of the results.
Choose one outcome from this list and give only that: active, inactive

Could you please tell me the result logged for COc1ccc(CC(=O)Nc2cccc(/C(C)=N/NC(=O)c3cccc([N+](=O)[O-])c3)c2)cc1 in this assay? active

Could you please tell me the result logged for CCOC(=O)N/N=C/c1ccccc1F in this assay? inactive

Could you please tell me the result logged for Nc1nc2c(ncn2COCCO)c(=O)[nH]1 in this assay? inactive

Could you please tell me the result logged for O=C(COc1ccc(-c2ccccc2)cc1)N/N=C/c1ccccc1Br in this assay? active

Could you please tell me the result logged for COc1ccc(/C(C)=N/NC(=O)c2ccc(N(C)C)cc2)cc1 in this assay? inactive

Could you please tell me the result logged for O=C(Nc1cccc(F)c1)N1CC[C@@]2(CCCN(C(=O)c3cc(C(F)(F)F)cc(C(F)(F)F)c3)C2)C1 in this assay? inactive

* * *

- STUDY_SYSTEM: Cytochrome P450 2C9 (Homo sapiens) (UniProt P11712)
- ASSAY_SUMMARY: Cytochrome panel assay with activity outcomes
- CONDITION_PARAMETERS: recombinant CYP, pro-luciferin dealkylation, luminescence, p450-cyp2c9; series mostly up to 57.1 µM
In all, about 16,000 compounds went through this assay and about 4,000 (25%) were called active. Inconclusive results (about 26%) are left out. These entries were drawn from the full list.
OBSERVATION_TYPE: AC50

// below: answered compounds
COMPOUND | STUDY_SYSTEM | AC50
CC(=O)N[C@@H](Cc1c[nH]c2ccccc12)C(=O)OCc1cc(C(F)(F)F)cc(C(F)(F)F)c1 | Cytochrome P450 2C9 (Homo sapiens) (UniProt P11712) | inactive
COc1ccc2[nH]cc(CCNc3ncncc3-c3ccccc3C(F)(F)F)c2c1 | Cytochrome P450 2C9 (Homo sapiens) (UniProt P11712) | 0.1 µM (active)
CC(=O)NC1(c2cccc(F)c2)CCN(CC(=O)NC2CCCCC2)CC1 | Cytochrome P450 2C9 (Homo sapiens) (UniProt P11712) | inactive
COC(=O)C(Cc1c[nH]c2ccccc12)NC(=O)C(C)C (configuration not stated) | Cytochrome P450 2C9 (Homo sapiens) (UniProt P11712) | inactive
O=C(Nc1nc(-c2ccccc2)cs1)c1cccc([N+](=O)[O-])c1 | Cytochrome P450 2C9 (Homo sapiens) (UniProt P11712) | 7.08 µM (active)
CCSc1nc2c(c(=O)[nH]1)C(c1ccncc1)C(C(=O)OC(C)C)=C(C)N2 (configuration not stated) | Cytochrome P450 2C9 (Homo sapiens) (UniProt P11712) | 2.82 µM (active)
CCSc1nc2c(c(=O)[nH]1)C(c1ccccn1)C1=C(CC(C)(C)CC1=O)N2 (configuration not stated) | Cytochrome P450 2C9 (Homo sapiens) (UniProt P11712) | inactive
C[C@@H](CN1CCC(Cc2ccccc2)CC1)[C@H](O)c1ccc(O)cc1 | Cytochrome P450 2C9 (Homo sapiens) (UniProt P11712) | inactive

Request the reported AC50 associated with COc1ccc2[nH]cc(CCNc3ncncc3-c3ccccc3OC)c2c1 0.251 µM (active)

Request the reported AC50 associated with NCCOB(c1ccccc1)c1ccccc1 inactive

Request the reported AC50 associated with CC(SCc1cn2cc(Cl)ccc2n1)C(=O)O (configuration not stated) inactive

Request the reported AC50 associated with Cc1noc(C)c1C(=O)N1CCC[C@@]2(CCN(c3ncccn3)C2)C1 inactive

Request the reported AC50 associated with C[C@@H](C(=O)NCCc1c[nH]c2ccccc12)[C@@H]1C[C@@]1(C)[C@@H](NC(=O)OCc1ccccc1)c1ccccc1 2.51 µM (active)

Request the reported AC50 associated with COc1cccc(NC(=O)CSc2nc3c(c(-c4ccco4)c2C#N)CCCC3)c1 inactive

Request the reported AC50 associated with CC(=O)Nc1sc2c(c1CN1CCN(C)CC1)CCCC2 inactive

Request the reported AC50 associated with CC(C)OC(=O)c1cc2c(ccn2C)n1CC(=O)N1CCC(Cc2ccccc2)CC1 14.1 µM (active)

Request the reported AC50 associated with Nc1cc(-c2nn[nH]n2)ccc1F 12.6 µM (active)

Request the reported AC50 associated with O=C(Nc1cccc2ncccc12)c1cccc(F)c1 inactive

Request the reported AC50 associated with O=C(CN1CCN(S(=O)(=O)c2ccccc2)CC1)NC(=O)NCc1ccccc1 inactive

Request the reported AC50 associated with O=C(/C=C/c1ccco1)Nc1ccc(Oc2ccccc2)cc1 5.01 µM (active)

Request the reported AC50 associated with O=c1c2ccccc2nc2n1CC/C2=C\c1ccccc1[N+](=O)[O-] 5.01 µM (active)

Request the reported AC50 associated with O=C(C=C1SCCS1)/C=C/c1ccco1 inactive
